Tested on: A-549
Test: Antiproliferative activity, SRB assay
Format: cell-based, human
Conditions: IC50 MCF-10A / IC50 A-549
Could you label it yes (1) if measured calculated selectivity index SI is 2 or higher, and no (0) otherwise?

Query: Please indicate if the recorded calculated selectivity index SI for CCCCCCCCCCCCCCCC(=O)OC[C@H](COP(=O)([O-])OCC[N+](C)(C)C)OC(=O)Cc1c(C)n(C(=O)c2ccc(Cl)cc2)c2ccc(OC)cc12 meets or exceeds 2.
Response: no (0)

Query: Please indicate if the recorded calculated selectivity index SI for COc1ccc2c(c1)c(CC(=O)OC[C@@H](O)COP(=O)([O-])OCC[N+](C)(C)C)c(C)n2C(=O)c1ccc(Cl)cc1 meets or exceeds 2.
Response: no (0)

Query: Please indicate if the recorded calculated selectivity index SI for CCCCCCCC/C=C\CCCCCCCC(=O)OC[C@H](COP(=O)([O-])OCC[N+](C)(C)C)OC(=O)Cc1c(C)n(C(=O)c2ccc(Cl)cc2)c2ccc(OC)cc12 meets or exceeds 2.
Response: no (0)

Query: Please indicate if the recorded calculated selectivity index SI for CCCCCCCCCCCCCCCCCC(=O)OC[C@H](COP(=O)([O-])OCC[N+](C)(C)C)OC(=O)Cc1c(C)n(C(=O)c2ccc(Cl)cc2)c2ccc(OC)cc12 meets or exceeds 2.
Response: yes (1)

Query: Please indicate if the recorded calculated selectivity index SI for CCCCCCCCCCCCCCCCCC(=O)O[C@H](COC(=O)Cc1c(C)n(C(=O)c2ccc(Cl)cc2)c2ccc(OC)cc12)COP(=O)([O-])OCC[N+](C)(C)C meets or exceeds 2.
Response: no (0)

====

System: PC-3
Test: Antiproliferative activity, SRB assay
Assay type: cell-based, human
Conditions: Homo sapiens, PC-3, 72 h
measured-parameter: pIC50
FYI, pIC50 means -log10 of a concentration in mol per litre.

Query: Reported pIC50 for COc1ccc2c(c1)c(CC(=O)O)c(C)n2C(=O)c1ccc(Cl)cc1 [IND, indomethacin, reference compound] : what is it?
Response: 3.80

====

Tested on: PC-3
Test: Antiproliferative activity, SRB assay
Type: cell-based, human
Details: IC50 MCF-10A / IC50 PC3
# strict inequality: calculated selectivity index SI < 1 yields Y, everything else yields N

Query: Decide: calculated selectivity index SI of CCCCCCCCCCCCCCCCCC(=O)O[C@H](COC(=O)Cc1c(C)n(C(=O)c2ccc(Cl)cc2)c2ccc(OC)cc12)COP(=O)([O-])OCC[N+](C)(C)C strictly below 1?
Response: N

Query: Decide: calculated selectivity index SI of COc1ccc2c(c1)c(CC(=O)OC[C@@H](O)COP(=O)([O-])OCC[N+](C)(C)C)c(C)n2C(=O)c1ccc(Cl)cc1 strictly below 1?
Response: Y

Query: Decide: calculated selectivity index SI of CCCCCCCC/C=C\CCCCCCCC(=O)OC[C@H](COP(=O)([O-])OCC[N+](C)(C)C)OC(=O)Cc1c(C)n(C(=O)c2ccc(Cl)cc2)c2ccc(OC)cc12 strictly below 1?
Response: N

Query: Decide: calculated selectivity index SI of CCCCCCCCCCCCCCCCCC(=O)OC[C@H](COP(=O)([O-])OCC[N+](C)(C)C)OC(=O)Cc1c(C)n(C(=O)c2ccc(Cl)cc2)c2ccc(OC)cc12 strictly below 1?
Response: N

Query: Decide: calculated selectivity index SI of CCCCCCCCCCCCCCCC(=O)OC[C@H](COP(=O)([O-])OCC[N+](C)(C)C)OC(=O)Cc1c(C)n(C(=O)c2ccc(Cl)cc2)c2ccc(OC)cc12 strictly below 1?
Response: N

Data provenance: paper PMC11608545
